# TARGET_DESC: T1, human Angiopoietin-2 (human, UniProt O15123 19-496)
# T1 construct: Mostly bought recombinant protein (R&D Systems 623-AM/CF, 623-AN; biotinylated BT623) or supernatant of transfected 293F cells; also called Ang-2; rhAng-2
# T1 sequence: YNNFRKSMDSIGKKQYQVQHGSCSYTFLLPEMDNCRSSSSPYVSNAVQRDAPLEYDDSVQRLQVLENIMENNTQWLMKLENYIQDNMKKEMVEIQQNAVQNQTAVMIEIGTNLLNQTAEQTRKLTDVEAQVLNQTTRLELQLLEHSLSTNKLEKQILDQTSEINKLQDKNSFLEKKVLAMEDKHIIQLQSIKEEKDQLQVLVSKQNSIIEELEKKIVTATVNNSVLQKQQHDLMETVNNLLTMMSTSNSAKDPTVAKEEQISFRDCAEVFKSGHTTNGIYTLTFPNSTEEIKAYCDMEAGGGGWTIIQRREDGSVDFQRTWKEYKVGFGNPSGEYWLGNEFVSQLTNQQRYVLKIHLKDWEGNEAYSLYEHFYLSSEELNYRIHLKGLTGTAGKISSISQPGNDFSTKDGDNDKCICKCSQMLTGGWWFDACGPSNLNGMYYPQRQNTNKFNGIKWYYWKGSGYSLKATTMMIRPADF
# PROCEDURE_DETAILS: competition ELISA: biotin-Ang-2 on coated Tie2/Fc
MEASUREMENT_NAME: Efficacy (ratio of bound Ang-2 with mAb 30 µg/ml versus without) (ratio)
Report only the number, with the unit ratio understood.

Past entries and their recorded results:
mAb 3.19.3 (antibody, V domains shown, Human hybridoma IgG (XenoMouse); also called x3.19) VH: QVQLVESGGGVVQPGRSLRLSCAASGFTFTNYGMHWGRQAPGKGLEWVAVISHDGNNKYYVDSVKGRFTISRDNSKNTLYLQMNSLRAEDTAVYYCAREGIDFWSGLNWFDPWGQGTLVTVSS VL: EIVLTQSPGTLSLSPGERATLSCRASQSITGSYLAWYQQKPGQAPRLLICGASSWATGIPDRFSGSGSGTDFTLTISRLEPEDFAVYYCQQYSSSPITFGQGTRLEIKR : 0.395
mAb 3.31.2 (antibody, V domains shown, Human hybridoma IgG (XenoMouse); also called x3.31) VH: EVQLVESGGGLVQPGGSLRLSCAASGFTFSSYWMSWVRQAPGKGLEWVANIKQDGSDKYYVDSVKGRFTISRDNAKNSLYLRMNSLRAEDTAVFYCARDMGSGWFDYWGQGTLVTVSS VL: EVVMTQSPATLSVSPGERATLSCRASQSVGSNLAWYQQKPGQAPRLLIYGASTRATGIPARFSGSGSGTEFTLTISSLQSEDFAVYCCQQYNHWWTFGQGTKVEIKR : 0.375

# input for lookup
Please give the measured Efficacy (ratio of bound Ang-2 with mAb 30 µg/ml versus without) for this binder: mAb 5.88.3 (antibody, V domains shown, Human hybridoma IgG (XenoMouse); also called x5.88) VH: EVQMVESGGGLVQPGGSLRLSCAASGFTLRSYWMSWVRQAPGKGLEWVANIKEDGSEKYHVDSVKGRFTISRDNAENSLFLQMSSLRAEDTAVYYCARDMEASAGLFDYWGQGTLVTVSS VL: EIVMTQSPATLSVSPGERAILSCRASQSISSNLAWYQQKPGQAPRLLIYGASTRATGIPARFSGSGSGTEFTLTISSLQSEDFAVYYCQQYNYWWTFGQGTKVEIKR 0.403
